test-details: Cytotoxicity against rat C6 cells assessed as cell viability at 5 uM measured after 24 hrs by MTT assay relative to control
Type: cell-based
experimental-context: read-out: Activity
measured-metric: viability at 24 h, 5 µM (%)
Quick note: give the figure in %, leave out the unit.

Which viability at 24 h, 5 µM is reported for this molecule? CC1=CC(O)(C[C@@H](C)[C@]2(C)CC=C3C4=CC[C@H]5C(C)(C)[C@H](O)CC[C@]5(C)[C@@H]4CC[C@]32C)OC1=O (stereo partly specified)
108

---

Tested on: SK-MEL-2
test-details: Cytotoxicity against human SK-MEL-2 cells assessed as cell growth inhibition measured after 48 hrs by sulforhodamine B assay
Type: functional, cell-based
experimental-context: SK-MEL-2, 48 h
Parameter pIC50: see the listing below.
// pIC50: -log10(molar conc.)

compound	tested-system	pIC50
C=C(C)[C@@H]1CC=C2[C@@H](CC=C3[C@@]2(C)CC[C@@]3(C)[C@H](C)C[C@@H]2C[C@@H](C)C(=O)O2)[C@@]1(C)CCC(=O)OC	SK-MEL-2	5.77
CC1=CC(O)(C[C@@H](C)[C@H]2CC[C@@]3(C)C4=CC[C@H]5C(C)(C)C(=O)CC[C@]5(C)[C@@H]4CC[C@]23C)OC1=O (stereo partly drawn)	SK-MEL-2	5.39
C[C@@H]1C[C@]2(C[C@@H](C)[C@]3(CC[C@@]4(C)[C@@H]5CC[C@H]6C(C)(C)[C@H](O)CC[C@@]67C[C@@]57CC[C@@]43C)O2)OC1=O	SK-MEL-2	5.07
C/C(=C\[C@H](O)C[C@@H](C)[C@H]1CC[C@@]2(C)C3=CC[C@H]4C(C)(C)C(=O)CC[C@]4(C)[C@@H]3CC[C@]12C)C(=O)O	SK-MEL-2	5.06

Which pIC50 is reported for this compound? `C/C(=C\C(=O)C[C@@H](C)[C@@H]1CC=C2C3=CC[C@H]4C(C)(C)[C@H](O)CC[C@]4(C)[C@@H]3CC[C@]21C)C(=O)O`
5.14

Record: `C/C(=C\C(=O)C[C@@H](C)[C@H]1CC[C@@]2(C)C3=CC[C@H]4C(C)(C)C(=O)CC[C@]4(C)[C@@H]3CC[C@]12C)C(=O)O`
5.49

Record: CC1=CC(O)(C[C@@H](C)[C@]2(C)CC=C3C4=CC[C@H]5C(C)(C)[C@H](O)CC[C@]5(C)[C@@H]4CC[C@]32C)OC1=O (stereo partly drawn)
5.38

Record: `C=C(C)[C@@H]1CC=C2[C@@H](CC[C@]3(C)[C@@H]([C@H](C)C[C@@H]4C[C@@H](C)C(=O)O4)CC[C@@]23C)[C@@]1(C)CCC(=O)OC`
5.26

---

Parameter viability at 24 h, 20 µM: see the listing below.
test-details: Cytotoxicity against rat C6 cells assessed as cell viability at 20 uM measured after 24 hrs by MTT assay relative to control
Format: cell-based
experimental-context: read-out: Activity
Quick note: give the figure in %, leave out the unit.

Which viability at 24 h, 20 µM is reported for this molecule? `C/C(=C\C(=O)C[C@@H](C)[C@H]1CC[C@@]2(C)C3=CC[C@H]4C(C)(C)C(=O)CC[C@]4(C)[C@@H]3CC[C@]12C)C(=O)O`
62.2

Record: `C/C(=C\[C@H](O)C[C@@H](C)[C@H]1CC[C@@]2(C)C3=CC[C@H]4C(C)(C)C(=O)CC[C@]4(C)[C@@H]3CC[C@]12C)C(=O)O`
111

Record: CCCCC/C=C/C(=O)CCc1ccc(O)c(OC)c1 [SHOGAOL]
110

Record: `C[C@@H]1C[C@]2(C[C@@H](C)[C@]3(CC[C@@]4(C)[C@@H]5CC[C@H]6C(C)(C)[C@H](O)CC[C@@]67C[C@@]57CC[C@@]43C)O2)OC1=O`
107

Record: `C=C(C)[C@@H]1CC=C2[C@@H](CC[C@]23C(=C)CC[C@@]3(C)[C@H](C)CC(=O)/C=C(\C)C(=O)O)[C@@]1(C)CCC(=O)O`
104

Record: `C=C(CC(=O)C[C@@H](C)[C@]1(C)CCC(=C)[C@]12CC[C@@H]1C2=CC[C@@H](C(=C)C)[C@]1(C)CCC(=O)O)C(=O)O`
112

Record: `C/C(=C\CO)[C@@H](O)C[C@@H]1[C@@]2(C)CCCC(C)(C)[C@@H]2CC[C@@]1(C)O`
99.8
